Assay: Mammalian cell growth inhibition (CellTiter-Blue cell viability assay)
Format: cell-based, human
Settings: human, A549, K562, HCT116 and HepG2 cells; mammalian cells, 72 h
Procedure: Mammalian cell experiments: All compounds were dissolved in sterile DMSO to a stock concentration of 20 μM and aliquoted prior to freezing at −20° C. Aliquots were limited to a maximum of 3 freeze-thaw cycles. […] Growth inhibition was studied using the Promega CellTiter-Blue cell viability assay pursuant to the manufacturer's protocol. […] Plates were read on a SpectraMax i3 plate reader. […]
reportedMetric: GI50 at 72 h

INSERT INTO measurements (compound, result) VALUES
  ('CSC1O[C@H]([C@H](NC(=O)[C@H]2NC[C@@H]3C[C@H](CC(C)C)CCO[C@H]32)[C@H](C)Cl)C(O)[C@@H](O)[C@H]1O (stereo partly shown) [FSA-513018b]', '> 50 µM');
